Test system: DYRK2;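 also: KINOMEscan kinase panel screen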
assay conditions: concentration: 1 μM, replicates: in singlicate; n = 1
measure name: %Inh (%)
Report as a plain number; the unit % is understood.

Some solved cases for reference:
>>> df
                                   molecule  units_label  test_value
0  Cc1c(Cn2c(C)nn3c(=O)cc(N4CCO[C@H](C)C4)nc23)cccc1C(F)(F)F [GSK2373690]            %          17
1        CCc1nc(-c2cccc(C)c2)c(-c2ccncc2)s1            %           0
2  Nc1nc(-c2ccccc2F)c(-c2ccnc3ccccc23)s1 [GW560459]            %           0
3  FC(F)(F)c1ccc(-c2ncn(CCCN3CCOCC3)c2-c2ccncc2)cc1 [SB-217780]            %          25
4  CN1C(=O)C(Nc2ccccc2)=C(c2ccccc2)C1=O [SB-300079]            %          10
5  CC(C)(C)c1ccc(C(=O)Nc2cn3cc(-c4ccccc4)ccc3n2)cc1            %          37

Q: Which measured %Inh value corresponds to COc1ccc(-c2cc3c(C)nc(N)nc3n([C@H]3CC[C@H](O)CC3)c2=O)cn1 ?
Result: 0

Q: Which measured %Inh value corresponds to CCS(=O)(=O)c1ccc(OC)c(Nc2ncc(-c3ccc(F)cc3)o2)c1.Cl [GW591947] ?
Result: 17

Q: Which measured %Inh value corresponds to Cc1ccc(Oc2ccc(Nc3ncnc4cc[nH]c34)cc2C)cn1 ?
Result: 0
